# study system: MBP-FoxP3dN (Mus musculus, UniProt Q99JB6 188-423)
# Sequence: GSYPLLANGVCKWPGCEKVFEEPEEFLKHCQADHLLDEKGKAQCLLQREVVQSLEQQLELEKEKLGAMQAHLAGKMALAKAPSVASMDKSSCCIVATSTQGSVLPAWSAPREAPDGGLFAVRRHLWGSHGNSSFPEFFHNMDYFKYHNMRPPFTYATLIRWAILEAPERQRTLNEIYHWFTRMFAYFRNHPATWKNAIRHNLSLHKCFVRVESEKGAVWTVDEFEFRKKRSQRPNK
# assay method text: PD-seq (MBP pull-down with sequencing); 20 mM Tris-HCl pH 7.5, 100 mM NaCl, 1.5 mM MgCl2, 0.4 uM protein, 0.1 uM dsDNA library, 30 min, room temperature, amylose pull-down; high values mean tight binding
# test context: protein: recombinant; tags: His6-MBP; chain copies: 2; dsDNA, one strand shown
In all, about 16,000 sequences were measured (“rpm ratio (pull-down/input)”: median about 0.5, highest 2% from about 5.5 on). The full list was thinned out, with the highest values kept by preference.

sequence | binding signal
GATGATTGTTCTCCCAGCTGATGAATTGCAGAGTTCGAGTAAACAAATTTTCCTAATCTTTCTGTTCAAGCGCCATCTAC | 0.781 RPM ratio (pull-down/input)
GATGATTGTTCTCCCAGCTGATGAATTCCTCGCATCGAGTAAACAAATTTTCCTAATCTTTCTGTTCAAGCGCCATCTAC | 0.768 RPM ratio (pull-down/input)
GATGATTGTTCTCCCAGCTGATGAATTGGTTTGGTCGAGTAAACAAATTTTCCTAATCTTTCTGTTCAAGCGCCATCTAC | 3.6 RPM ratio (pull-down/input)
GATGATTGTTCTCCCAGCTGATGAATTCGCATTATCGAGTAAACAAATTTTCCTAATCTTTCTGTTCAAGCGCCATCTAC | 3.53 RPM ratio (pull-down/input)

###

# study system: MBP-FoxP3dN (Mus musculus, UniProt Q99JB6 188-423)
# Sequence: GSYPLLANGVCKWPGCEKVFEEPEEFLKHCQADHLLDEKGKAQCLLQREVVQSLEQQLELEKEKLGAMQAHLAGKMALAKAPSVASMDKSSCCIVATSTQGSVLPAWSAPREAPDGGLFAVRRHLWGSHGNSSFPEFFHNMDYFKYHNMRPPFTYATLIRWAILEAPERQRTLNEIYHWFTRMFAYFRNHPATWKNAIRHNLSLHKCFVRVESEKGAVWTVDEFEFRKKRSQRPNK
# assay method text: PD-seq (MBP pull-down with sequencing); 20 mM Tris-HCl pH 7.5, 100 mM NaCl, 1.5 mM MgCl2, 0.4 uM protein, 0.1 uM dsDNA library, 30 min, room temperature, amylose pull-down; high values mean tight binding
# test context: protein: recombinant; tags: His6-MBP; chain copies: 2; dsDNA, one strand shown
Over roughly 16,000 sequences, “rpm ratio (pull-down/input)” has its median near 0.5; the highest 2% begin near 5.5. The list comes from a sample in which the highest values are over-represented; it also holds close analogues and randomly drawn sequences.
assay readout: binding signal

sequence | value observed
GATGATTGTTCTCCCAGCTGATGAATTTTGTGCCTCGAGTAAACAAATTTTCCTAATCTTTCTGTTCAAGCGCCATCTAC | 1.84 RPM ratio (pull-down/input)
GATGATTGTTCTCCCAGCTGATGAATTTCAGGGCTCGAGTAAACAAATTTTCCTAATCTTTCTGTTCAAGCGCCATCTAC | 0.225 RPM ratio (pull-down/input)
GATGATTGTTCTCCCAGCTGATGAATTGTGCCTCTCGAGTAAACAAATTTTCCTAATCTTTCTGTTCAAGCGCCATCTAC | 6.79 RPM ratio (pull-down/input)
GATGATTGTTCTCCCAGCTGATGAATTTGTCGTGTCGAGTAAACAAATTTTCCTAATCTTTCTGTTCAAGCGCCATCTAC | 5.6 RPM ratio (pull-down/input)
GATGATTGTTCTCCCAGCTGATGAATTCGTGTTGTCGAGTAAACAAATTTTCCTAATCTTTCTGTTCAAGCGCCATCTAC | 2.75 RPM ratio (pull-down/input)
GATGATTGTTCTCCCAGCTGATGAATTGTCGTGTTCGAGTAAACAAATTTTCCTAATCTTTCTGTTCAAGCGCCATCTAC | 0.915 RPM ratio (pull-down/input)
GATGATTGTTCTCCCAGCTGATGAATTTTTGCTGTCGAGTAAACAAATTTTCCTAATCTTTCTGTTCAAGCGCCATCTAC | 0.548 RPM ratio (pull-down/input)
GATGATTGTTCTCCCAGCTGATGAATTGCTTGTGTCGAGTAAACAAATTTTCCTAATCTTTCTGTTCAAGCGCCATCTAC | 2.01 RPM ratio (pull-down/input)
GATGATTGTTCTCCCAGCTGATGAATTTCTGTTGTCGAGTAAACAAATTTTCCTAATCTTTCTGTTCAAGCGCCATCTAC | 1.28 RPM ratio (pull-down/input)
GATGATTGTTCTCCCAGCTGATGAATTTTTGTTGTCGAGTAAACAAATTTTCCTAATCTTTCTGTTCAAGCGCCATCTAC | 3.24 RPM ratio (pull-down/input)
GATGATTGTTCTCCCAGCTGATGAATTATCAGGCTCGAGTAAACAAATTTTCCTAATCTTTCTGTTCAAGCGCCATCTAC | 0.299 RPM ratio (pull-down/input)
GATGATTGTTCTCCCAGCTGATGAATTCTCCGCCTCGAGTAAACAAATTTTCCTAATCTTTCTGTTCAAGCGCCATCTAC | 0.428 RPM ratio (pull-down/input)
GATGATTGTTCTCCCAGCTGATGAATTCGTTGTGTCGAGTAAACAAATTTTCCTAATCTTTCTGTTCAAGCGCCATCTAC | 5.69 RPM ratio (pull-down/input)
GATGATTGTTCTCCCAGCTGATGAATTATGGAAATCGAGTAAACAAATTTTCCTAATCTTTCTGTTCAAGCGCCATCTAC | 0.4 RPM ratio (pull-down/input)
GATGATTGTTCTCCCAGCTGATGAATTTGCTGTGTCGAGTAAACAAATTTTCCTAATCTTTCTGTTCAAGCGCCATCTAC | 6.29 RPM ratio (pull-down/input)

###

# study system: MBP-FoxP3dN (Mus musculus, UniProt Q99JB6 188-423)
# Sequence: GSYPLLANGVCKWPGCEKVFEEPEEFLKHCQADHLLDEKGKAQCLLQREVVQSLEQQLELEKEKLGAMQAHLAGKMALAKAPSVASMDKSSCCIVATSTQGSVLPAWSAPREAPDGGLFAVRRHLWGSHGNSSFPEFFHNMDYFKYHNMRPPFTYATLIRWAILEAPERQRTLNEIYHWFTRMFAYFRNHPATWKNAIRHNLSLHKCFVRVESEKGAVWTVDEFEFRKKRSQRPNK
# assay method text: PD-seq (MBP pull-down with sequencing); 20 mM Tris-HCl pH 7.5, 100 mM NaCl, 1.5 mM MgCl2, 0.4 uM protein, 0.1 uM dsDNA library, 30 min, room temperature, amylose pull-down; high values mean tight binding
# test context: protein: recombinant; tags: His6-MBP; chain copies: 2; dsDNA, one strand shown
In all, about 16,000 sequences were measured (“rpm ratio (pull-down/input)”: median about 0.5, highest 2% from about 5.5 on). The sample as a whole holds a higher share of the highest values than the screen did.
Overview of reported binding signal across a group of sequences:
assay readout: binding signal

sequence | assay readout | value observed
GATGATTGTTCTCCCAGCTGATGAATTGCTAACTTCGAGTAAACAAATTTTCCTAATCTTTCTGTTCAAGCGCCATCTAC | binding signal | 0.723 RPM ratio (pull-down/input)
GATGATTGTTCTCCCAGCTGATGAATTTTATTGGTCGAGTAAACAAATTTTCCTAATCTTTCTGTTCAAGCGCCATCTAC | binding signal | 4.94 RPM ratio (pull-down/input)
GATGATTGTTCTCCCAGCTGATGAATTTGCCGATTCGAGTAAACAAATTTTCCTAATCTTTCTGTTCAAGCGCCATCTAC | binding signal | 0.474 RPM ratio (pull-down/input)
GATGATTGTTCTCCCAGCTGATGAATTTAATTTGTCGAGTAAACAAATTTTCCTAATCTTTCTGTTCAAGCGCCATCTAC | binding signal | 3.39 RPM ratio (pull-down/input)
GATGATTGTTCTCCCAGCTGATGAATTATAAGATTCGAGTAAACAAATTTTCCTAATCTTTCTGTTCAAGCGCCATCTAC | binding signal | 0.351 RPM ratio (pull-down/input)
GATGATTGTTCTCCCAGCTGATGAATTACTATCGTCGAGTAAACAAATTTTCCTAATCTTTCTGTTCAAGCGCCATCTAC | binding signal | 0.509 RPM ratio (pull-down/input)
GATGATTGTTCTCCCAGCTGATGAATTTGGTGAGTCGAGTAAACAAATTTTCCTAATCTTTCTGTTCAAGCGCCATCTAC | binding signal | 0.814 RPM ratio (pull-down/input)
